Here the recorded Fungal growth after 8 weeks is given for each entry.
System: Fomitopsis palustris
Measurement Protocol: Wood-decaying fungal growth inhibition test
Assay type: cell-based
Set-up: key: 0: No growth; 1: Fungal growth
Recorded Conditions: filter paper immersed in 5 w/w % acetone solution, placed on Fomitopsis palustris on PDA medium; Control 1
Enter a number only.

Reference set, count: 6
> print(dat)
                                   molecule                quantity.kind  readout.value
1  COC1=CC(=O)O[C@@H](CCc2ccccc2)C1 [7,8-Dihydrokawain]  Fungal growth after 8 weeks              0
2  COc1cc(/C=C/c2ccccc2)oc(=O)c1 [5,6-Dehydrokawain]  Fungal growth after 8 weeks              0
3  COC1=CC(=O)OC(CCc2ccc(OC)cc2)C1 (stereo not shown) [5,6,7,8-Tetrahydroyangonin]  Fungal growth after 8 weeks              0
4  COC1=CC(=O)O[C@@H](CCc2ccc3c(c2)OCO3)C1 [7,8-Dihydromethysticin]  Fungal growth after 8 weeks              0
5         COc1ccc(/C=C/c2cc(OC)cc(=O)o2)cc1  Fungal growth after 8 weeks              0
6  COC1=CC(=O)O[C@@H](/C=C/c2ccc3c(c2)OCO3)C1  Fungal growth after 8 weeks              0

Field Fungal growth after 8 weeks (Fomitopsis palustris), entry COC1=CC(=O)O[C@@H](/C=C/c2ccccc2)C1 : 0
